target: P2X purinoceptor 1 (Rattus norvegicus, UniProt P47824); test: Compound was tested in a functional ion channel assay of ATP-induced current at recombinant rat P2X1 receptor expressed in Xenopus oocytes.
Sequence (P47824 whole entry): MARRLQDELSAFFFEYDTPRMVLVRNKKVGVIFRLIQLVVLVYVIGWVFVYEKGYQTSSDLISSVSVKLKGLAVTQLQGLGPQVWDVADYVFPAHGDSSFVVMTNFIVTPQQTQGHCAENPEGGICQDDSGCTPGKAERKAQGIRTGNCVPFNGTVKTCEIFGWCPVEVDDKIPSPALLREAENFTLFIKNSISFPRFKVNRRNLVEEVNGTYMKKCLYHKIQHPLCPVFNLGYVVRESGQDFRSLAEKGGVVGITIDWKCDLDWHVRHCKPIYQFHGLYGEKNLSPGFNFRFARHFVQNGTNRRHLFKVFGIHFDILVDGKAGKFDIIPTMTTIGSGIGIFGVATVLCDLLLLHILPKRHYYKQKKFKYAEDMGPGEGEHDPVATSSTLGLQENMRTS
OBSERVED_PROPERTY: pEC50
Quick note: pEC50 means taking -log10 of the concentration in moles per liter.

Would you mind telling me what pEC50 value was observed for "Cc1ncc2c(c1O)COP(=O)(O)OC2" ?
5.23
